Experiment: HUVEC growth inhibition – cell-based, human, primary screen (AID 575);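 further: 100% = median of untreated cell wells with 0.1% DMSO on each plate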
Conditions: HUVEC proliferation, CellTiter-Glo luminescence, 72 h; at 10 µM; stronger effect = lower value
A collection of compounds and their measured viability
METRIC NAME: viability (%)

Cc1ccc(N2CCN(c3ccc(C)cc3)C(CC(=O)O)C2=O)cc1 (centres undefined)    98.2
Cc1cc(NC(=O)c2cc(-c3ccco3)on2)n(-c2ccccc2)n1    80.7
COC(=O)CCN(C(=O)c1ccc2c(c1)OCO2)c1ccccn1    93.6
COc1ccc(C/C(O)=C(\C#N)c2nc3ccccc3s2)cc1    48.8

----------
Assay: growth inhibitors of H69AR lung tumor, primary screen, human, duplicate replicates (AID 580);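 further: 100% = mean luminescence of untreated wells and 0% = no signal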
Conditions: H69AR lung tumor cells viability, ATP luminescence, 72 h; at 10 µM; stronger effect = lower value
METRIC NAME: viability (%)

COCc1nnc(NS(=O)(=O)c2ccc(Br)cc2)s1    91.3
O=C1c2ccccc2-c2ccc(C(=O)N3CCOCC3)cc21    89.7
COc1ccc(-c2c3c(=O)n(C)c(=O)n(C)c3cn2-c2cccc(OC)c2)cc1    89.7
CC1CCN(C(=O)c2cc(-c3ccc(Cl)c(Cl)c3)on2)CC1    90.7
COc1ccc(C2/C(=C(/O)c3ccc(OC(C)C)cc3)C(=O)C(=O)N2CCCN2CCOCC2)cc1 (stereo not given)    92.4

----------
Assay: 384-well plate pilot, post-Golgi transport modulator project, inhibition of yeast transport mutant growth (AID 636)
Details: absorbance 615 nm, about 18 h, stronger effect = higher value
Calls of active or inactive are those of the source. No stated cut-off is given here; in the data, active means inhibition above about 31%; inactive means the rest.
METRIC NAME: inhibition

O=C(COC(=O)c1cccc(S(=O)(=O)N2CCc3ccccc32)c1)NC1CCS(=O)(=O)C1 (stereo unspecified)    -4.05% (inactive)
O=C(NCc1cccs1)C1CC(=O)N(C2CCCC2)C1 (stereo unspecified)    2.6% (inactive)
O=C1c2ccccc2C(Nc2ccc3nc(-c4cccnc4)[nH]c3c2)N1Cc1ccco1 (stereo unspecified)    2.44% (inactive)
COc1nc2ccc(C)cc2cc1-c1noc(-c2cccnc2)n1    -2.37% (inactive)
Cc1cc(C)nc(-n2nc(C)cc2NC(=O)c2ccc(Br)o2)n1    -3.73% (inactive)
C=CCn1c(N)c(C(=O)OC(C)(C)C)c2nc3ccccc3nc21    0.66% (inactive)

----------
Assay: growth suppression of yeast trafficking mutant, preliminary HTS, modulators of trafficking downstream of Golgi apparatus project, 1536-format plate, OD 615 nm (AID 637)
Details: yeast transport mutant growth, absorbance 615 nm, 18 h; stronger effect = higher value
The source made the active and inactive calls. No stated cut-off is given here; in the data, active means inhibition above about 30%; inactive means the rest.
METRIC NAME: inhibition

Cc1ccc(N2C(N)=NC(N)=NC23CCCC3)c(C)c1    1.11% (inactive)
CCc1ccc(NS(=O)(=O)c2ccc3[nH]cc(C(=O)N4CCCCC4)c(=O)c3c2)cc1    -0.81% (inactive)
CCCCCCC(=O)c1c(C)[nH]c(C(=O)OCC)c1C    4.03% (inactive)
N#Cc1c(N)nc(SCc2ccncc2)c(C#N)c1-c1cccs1    7.74% (inactive)
Cc1ccc2c(c1)NC(=O)C(CC(=O)NCCCN1CCN(c3cc(Cl)ccc3C)CC1)O2 (stereo unspecified)    0.98% (inactive)
O=C(NCc1ccco1)c1ccc2c(=O)n(CC3CCCO3)c(=S)[nH]c2c1 (stereo unspecified)    -0.66% (inactive)
COc1cc(/C=C/C(=O)CC(=O)/C=C/c2ccc(O)c(OC)c2)ccc1O    3.5% (inactive)
CCN(CC)c1ccc2c(C)c(-c3ccc(N)cc3)c(=O)oc2c1    12.3% (inactive)
CCn1c(SCC(=O)Nc2ccc(C(=O)OC)cc2)nnc1-c1cccs1    6.98% (inactive)
CC1CC(C)CN(CC(=O)Nc2ccc(S(N)(=O)=O)cc2)C1 (stereo unspecified)    -2.58% (inactive)
CCOC(=O)C1CCCN(C(=O)Cc2ccc(OC)c(OC)c2)C1 (stereo unspecified)    1.09% (inactive)
